B1: HDV Ribozyme (parent)
chain: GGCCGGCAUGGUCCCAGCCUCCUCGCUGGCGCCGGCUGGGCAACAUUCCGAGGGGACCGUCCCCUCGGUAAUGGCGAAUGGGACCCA

Variants of: B1
Assay: self-cleavage, relative activity (ratio to wild type); higher = more cleavage; co-transcriptional
self-cleavage below 0.3 gives Not met; self-cleavage at or above it gives Met.

[[record]]
variantidentifier = "C7G G67C"
classname = "Not met"

[[record]]
variantidentifier = "A8G G67C"
classname = "Met"

[[record]]
variantidentifier = "G35U U65G"
classname = "Met"

[[record]]
variantidentifier = "G6A G17A"
classname = "Met"

[[record]]
variantidentifier = "A42G C58A"
classname = "Met"


Determine whether measured self-cleavage meets or exceeds 0.3 for C58U C63U
Met

Determine whether measured self-cleavage meets or exceeds 0.3 for G17A G55A
Met

Determine whether measured self-cleavage meets or exceeds 0.3 for U47C A71G
Met

Determine whether measured self-cleavage meets or exceeds 0.3 for G17A G73A
Met

Determine whether measured self-cleavage meets or exceeds 0.3 for C22U G80U
Not met

Determine whether measured self-cleavage meets or exceeds 0.3 for G35A G74U
Not met

Determine whether measured self-cleavage meets or exceeds 0.3 for U9A U12C
Not met

Determine whether measured self-cleavage meets or exceeds 0.3 for A43G C58U
Met

Determine whether measured self-cleavage meets or exceeds 0.3 for G2U C33A
Not met

Determine whether measured self-cleavage meets or exceeds 0.3 for U23G U79G
Not met
